// data source = PubChem BioAssay (NCI)

Assay: NCI Yeast Anticancer Drug Screen. Data for the mlh1 rad18 strain (AID 175)
Settings: S. cerevisiae mlh1 rad18 strain growth inhibition; at 50.0 µM; active compounds read high
This is part of a sample that, as a whole, favours compounds with a hit. Of some 79,000 tested, about 15% had one in any assay.
reportedMetric: growth inhibition (%)
Numbers only, in %.

Provide growth inhibition for all items below, preserving their order.
1. CCC/C=C/c1cc2c(cc1O)CC[C@@H]1[C@@H]2CC[C@]2(C)[C@@H](O)CC[C@@H]12
2. COc1ccc(/C=C/C(=O)N(C)C)cc1
3. CC1(C)C=CC(=NO)C=C1
4. Nc1ccc([N+](=O)[O-])c(C(F)(F)F)c1
5. CCOC(=O)C1=C(NC(=O)C(c2ccccc2)c2ccccc2)OCC1
6. CCCn1c(CC)nc([N+](=O)[O-])c1Sc1ncn[nH]1

**Result**
1. 23.9
2. -3.05
3. 6.7
4. 22.6
5. 7.85
6. -11.5

Provide growth inhibition for all items below, preserving their order.
1. CC(C)C1=CC2=CCC3C(C)(COC(=O)CSC(C)(C)C)CCCC3(C)C2CC1 (stereo unspecified)
2. CCc1nc(N)nc(N)c1-c1ccc(OC)c([N+](=O)[O-])c1

**Result**
1: 20.2; 2: 7.9
